- Assay name: Serum protease stability in 10% fetal calf serum (RP-HPLC)
- Assay type: in vitro ADME
- Protocol conditions: cattle (fetal calf), 10% fetal calf serum in phosphate buffer; 3 h; 10% FCS, pH 7.3; read-out: % residual peptide ± SD
Quantity: remaining at 3 h, 10 μmol/L (%)
Field: numeric (%). Do not append units.

Determine its reported remaining at 3 h, 10 μmol/L: NC(=O)[C@@H](CS)NC(=O)C(CCCCNC(=O)C(CCCCNC(=O)[C@H](CC1CCCCC1)NC(=O)C(CSCc1ccccc1)NC(=O)[C@H](N)CCC(=O)O)NC(=O)[C@H](CC1CCCCC1)NC(=O)C(CSCc1ccccc1)NC(=O)[C@H](N)CCC(=O)O)NC(=O)C(CCCCNC(=O)[C@H](CC1CCCCC1)NC(=O)C(CSCc1ccccc1)NC(=O)[C@H](N)CCC(=O)O)NC(=O)[C@H](CC1CCCCC1)NC(=O)C(CSCc1ccccc1)NC(=O)[C@H](N)CCC(=O)O (stereo partly shown) [iVR1-Cys]
98

* * *

- Assay name: Serum protease stability in 10% fetal calf serum (RP-HPLC)
- Format: in vitro ADME
- Protocol conditions: cattle (fetal calf), 10% fetal calf serum in phosphate buffer; 5 h; 10% FCS, pH 7.3; read-out: % residual peptide ± SD
Quantity: remaining at 5 h, 10 μmol/L (%)
State just the number; it will be interpreted in %.

Using known records, supply remaining at 5 h, 10 μmol/L for NC(=O)[C@@H](CS)NC(=O)C(CCCCNC(=O)C(CCCCNC(=O)[C@H](CC1CCCCC1)NC(=O)C(CSCc1ccccc1)NC(=O)[C@H](N)CCC(=O)O)NC(=O)[C@H](CC1CCCCC1)NC(=O)C(CSCc1ccccc1)NC(=O)[C@H](N)CCC(=O)O)NC(=O)C(CCCCNC(=O)[C@H](CC1CCCCC1)NC(=O)C(CSCc1ccccc1)NC(=O)[C@H](N)CCC(=O)O)NC(=O)[C@H](CC1CCCCC1)NC(=O)C(CSCc1ccccc1)NC(=O)[C@H](N)CCC(=O)O (stereo partly shown) [iVR1-Cys]
96

* * *

- Assay name: Serum protease stability in 10% fetal calf serum (RP-HPLC)
- Type: in vitro ADME
- Protocol conditions: cattle (fetal calf), 10% fetal calf serum in phosphate buffer; 7 h; 10% FCS, pH 7.3; read-out: % residual peptide ± SD
Quantity: remaining at 7 h, 10 μmol/L (%)
// units = %; emit number, no label

Determine from records and report remaining at 7 h, 10 μmol/L for NC(=O)[C@@H](CS)NC(=O)C(CCCCNC(=O)C(CCCCNC(=O)[C@H](CC1CCCCC1)NC(=O)C(CSCc1ccccc1)NC(=O)[C@H](N)CCC(=O)O)NC(=O)[C@H](CC1CCCCC1)NC(=O)C(CSCc1ccccc1)NC(=O)[C@H](N)CCC(=O)O)NC(=O)C(CCCCNC(=O)[C@H](CC1CCCCC1)NC(=O)C(CSCc1ccccc1)NC(=O)[C@H](N)CCC(=O)O)NC(=O)[C@H](CC1CCCCC1)NC(=O)C(CSCc1ccccc1)NC(=O)[C@H](N)CCC(=O)O (stereo partly shown)
95

* * *

- Assay name: Serum protease stability in 10% fetal calf serum (RP-HPLC)
- Assay type: in vitro ADME
- Protocol conditions: cattle (fetal calf), 10% fetal calf serum in phosphate buffer; 12 h; 10% FCS, pH 7.3; read-out: % residual peptide ± SD
Quantity: remaining at 12 h, 10 μmol/L (%)
Give the value, in units of %, as a plain number.

Please give the documented remaining at 12 h, 10 μmol/L of NC(=O)[C@@H](CS)NC(=O)C(CCCCNC(=O)C(CCCCNC(=O)[C@H](CC1CCCCC1)NC(=O)C(CSCc1ccccc1)NC(=O)[C@H](N)CCC(=O)O)NC(=O)[C@H](CC1CCCCC1)NC(=O)C(CSCc1ccccc1)NC(=O)[C@H](N)CCC(=O)O)NC(=O)C(CCCCNC(=O)[C@H](CC1CCCCC1)NC(=O)C(CSCc1ccccc1)NC(=O)[C@H](N)CCC(=O)O)NC(=O)[C@H](CC1CCCCC1)NC(=O)C(CSCc1ccccc1)NC(=O)[C@H](N)CCC(=O)O (stereo partly shown) [iVR1-Cys]
93
